Target Under Test: Delta-type opioid receptor (Rattus norvegicus, UniProt P33533)
Sequence (P33533 whole entry): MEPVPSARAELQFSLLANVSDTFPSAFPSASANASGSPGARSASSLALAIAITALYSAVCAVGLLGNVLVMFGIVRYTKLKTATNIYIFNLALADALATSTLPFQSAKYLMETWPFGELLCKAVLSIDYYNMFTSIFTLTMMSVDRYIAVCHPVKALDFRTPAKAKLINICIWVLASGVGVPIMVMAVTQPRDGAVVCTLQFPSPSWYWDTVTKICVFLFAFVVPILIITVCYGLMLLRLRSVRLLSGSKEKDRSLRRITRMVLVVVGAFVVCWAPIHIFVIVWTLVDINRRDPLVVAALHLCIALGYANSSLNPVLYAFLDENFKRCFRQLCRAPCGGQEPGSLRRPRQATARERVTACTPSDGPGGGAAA
Assay Procedure: Inhibition of [3H]-DADLE binding to rat brain membrane Opioid receptor delta 1
Experimental Readout: Ki (nM)
Express it in nM; write the number only.

Answered examples (3):
1. CCN(CC)C(=O)c1ccc([C@H](c2cccc(OC)c2)N2C[C@@H](C)N(CCCc3ccccc3)C[C@@H]2C)cc1 :: 16.7
2. CCCCCN1C[C@H](C)N([C@H](c2ccc(C(=O)N(CC)CC)cc2)c2cccc(OC)c2)C[C@H]1C :: 4.7
3. CCN(CC)C(=O)c1ccc([C@H](c2cccc(OC)c2)N2C[C@@H](C)N(C)C[C@@H]2C)cc1 :: 4.5

Next:
**Query** Query: Ki; subject: "CCCCCCN1C[C@H](C)N([C@H](c2ccc(C(=O)N(CC)CC)cc2)c2cccc(OC)c2)C[C@H]1C"
**Result** 10.4

* * *

Target Under Test: Delta-type opioid receptor (Rattus norvegicus)
Assay Procedure: Inhibition of [3H]-DADLE binding to rat brain membrane Opioid receptor delta 1
Quick reference: pKi of the listed items.
A value of pKi is the negative decimal logarithm of a concentration given in moles per litre.

Answered examples (7):
1. CCCCN1C[C@H](C)N([C@H](c2ccc(C(=O)N(CC)CC)cc2)c2cccc(OC)c2)C[C@H]1C :: 8.57
2. CCN(CC)C(=O)c1ccc([C@H](c2cccc(OC)c2)N2C[C@@H](C)N(Cc3ccccc3)C[C@@H]2C)cc1 :: 8.21
3. C=C(C)CN1C[C@H](C)N([C@H](c2ccc(C(=O)N(CC)CC)cc2)c2cccc(OC)c2)C[C@H]1C :: 8.32
4. CCN(CC)C(=O)c1ccc([C@H](c2cccc(OC)c2)N2C[C@@H](C)N(CCc3ccccc3)C[C@@H]2C)cc1 :: 7.51
5. C/C=C/CN1C[C@H](C)N([C@H](c2ccc(C(=O)N(CC)CC)cc2)c2cccc(OC)c2)C[C@H]1C :: 8.72
6. CCN(CC)C(=O)c1ccc([C@H](c2cccc(OC)c2)N2C[C@@H](C)NC[C@@H]2C)cc1 :: 8.33
7. CCN(CC)C(=O)c1ccc([C@H](c2cccc(OC)c2)N2C[C@@H](C)N(CC)C[C@@H]2C)cc1 :: 8.28

Next:
**Query** Query: pKi; subject: "CCN(CC)C(=O)c1ccc([C@H](c2cccc(OC)c2)N2C[C@@H](C)N(CC3CC3)C[C@@H]2C)cc1"
**Result** 8.46

* * *

Target Under Test: Delta-type opioid receptor (Rattus norvegicus) (UniProt P33533)
Sequence (P33533 whole entry): as above
Assay Procedure: Percent inhibition of SNC80 stimulated [35S]GTP-gamma-S, binding at 10 uM
Assay type: functional
Response key: True means inhibition >= 6%; False means inhibition < 6%.

1) CCCCCCN1C[C@H](C)N([C@H](c2ccc(C(=O)N(CC)CC)cc2)c2cccc(OC)c2)C[C@H]1C :: True
2) CCN(CC)C(=O)c1ccc([C@H](c2cccc(OC)c2)N2C[C@@H](C)N(CCc3ccccc3)C[C@@H]2C)cc1 :: True

**Query** Test whether the compound "C=C(C)CN1C[C@H](C)N([C@H](c2ccc(C(=O)N(CC)CC)cc2)c2cccc(OC)c2)C[C@H]1C" records inhibition of 6% or higher.
**Result** False

**Query** Test whether the compound "CCN(CC)C(=O)c1ccc([C@H](c2cccc(OC)c2)N2C[C@@H](C)N(CCCc3ccccc3)C[C@@H]2C)cc1" records inhibition of 6% or higher.
**Result** True

**Query** Test whether the compound "CCN(CC)C(=O)c1ccc([C@H](c2cccc(OC)c2)N2C[C@@H](C)N(C)C[C@@H]2C)cc1" records inhibition of 6% or higher.
**Result** True

**Query** Test whether the compound "CCN(CC)C(=O)c1ccc([C@H](c2cccc(OC)c2)N2C[C@@H](C)NC[C@@H]2C)cc1" records inhibition of 6% or higher.
**Result** True

**Query** Test whether the compound "C/C=C/CN1C[C@H](C)N([C@H](c2ccc(C(=O)N(CC)CC)cc2)c2cccc(OC)c2)C[C@H]1C" records inhibition of 6% or higher.
**Result** True

**Query** Test whether the compound "CCN(CC)C(=O)c1ccc([C@H](c2cccc(OC)c2)N2C[C@@H](C)N(Cc3ccccc3)C[C@@H]2C)cc1" records inhibition of 6% or higher.
**Result** False

src = ChEMBL document CHEMBL1133622
